Target: Mrgprb2 (Mus musculus)
Sequence (Q3KNA1 whole entry): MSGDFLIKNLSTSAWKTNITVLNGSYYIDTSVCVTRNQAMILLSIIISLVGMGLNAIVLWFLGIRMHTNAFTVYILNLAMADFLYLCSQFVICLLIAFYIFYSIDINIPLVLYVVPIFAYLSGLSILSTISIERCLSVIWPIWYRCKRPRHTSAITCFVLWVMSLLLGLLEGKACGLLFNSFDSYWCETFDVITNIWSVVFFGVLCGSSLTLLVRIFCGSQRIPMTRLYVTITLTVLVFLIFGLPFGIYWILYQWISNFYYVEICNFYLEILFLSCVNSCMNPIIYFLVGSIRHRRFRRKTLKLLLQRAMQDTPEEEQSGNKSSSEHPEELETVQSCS
Experiment: calcium imaging
ENDPOINT: EC50

Incoming: Answer with reported EC50 of C[C@H](CCC(=O)O)[C@H]1CC[C@H]2[C@@H]3CC[C@@H]4C[C@H](O)CC[C@]4(C)[C@H]3CC[C@]12C [LCA, 3α-hydroxy-5β-cholan-24-oic acid]
Outgoing: 183 µM
